B1: glmS ribozyme (parent)
chain: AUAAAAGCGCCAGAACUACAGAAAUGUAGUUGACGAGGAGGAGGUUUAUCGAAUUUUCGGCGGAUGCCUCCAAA

Variants of: B1
EXPERIMENT: self-cleavage kobs at 40 uM GlcN6P; higher = faster cleavage; RNA array
DETAILS: with glucosamine-6-phosphate
This sample holds only a part of the variants without activity.
Please respond with reported self-cleavage kobs at 40 uM GlcN6P for every item in the list.

INSERT INTO measurements (sequence_content, reported_measurement) VALUES
  ('AUAAAAGCGCCAGAACUACAGAAAUGUAGUUGACGAGGAGGAAGUUUAUCGAAUUUUCGGCGGGUGCCUCCAAA [G43A A64G]', '< 1e-05 s⁻¹');

Return reported self-cleavage kobs at 40 uM GlcN6P values for all items listed beneath this line.
1. AUAAAAGCGCCAGAACUACAGAAAUGUAGUUGACGAGGAGGAGGUUUAUCGAAUCUUCGGUGGAUGCCUCCAAA [U55C C61U]
2. AUAAAAGCGCCAGAACUACAGAAAUGUAGUUGACGAGGAGGAGGUUUACAGAAUUUUCGGCGGAUGCCUCCAAA [U49C C50A]
3. AUAAACGCGCCAGAACUACAGAAAUGUAGUUGACGACGGUUAGGUUUAUCGAAUUUUCGGCGGAUGCCUCCAAA [A6C G37C A39G G40U G41U]
4. AUAAAAGCGCCAGAGCUACAGAAAUGUAGUUUACGAGGAGGAGGUUUAUCGAAUUGUCGUCGGAUGCCUCCAAA [A15G G32U U56G G60U]
5. AUAAAAGCGCCAGAACUACAGAAAUGUAGGUGACGAGGAGGAGGUUCAUCGAAUUUUCGGCGGAUGCCUGCAAA [U30G U47C C70G]
6. AUAAAGGCGCCCGAACUACAGAAAUGUAGUUGACGAGGAGGAGGGUUAUCGAAUUUUUCGCAGAUGCGUCCAAA [A6G A12C U45G C58U G59C G62A C68G]

-- reply
1. < 1e-05 s⁻¹
2. < 1e-05 s⁻¹
3. < 1e-05 s⁻¹
4. < 1e-05 s⁻¹
5. < 1e-05 s⁻¹
6. < 1e-05 s⁻¹

Return reported self-cleavage kobs at 40 uM GlcN6P values for all items listed beneath this line.
1. AUAAAAGCGCCCGAACUACAGAAAUGUAGUUGACGAGGAGGAGGUUUAUUGAAGUUUCGGCGGAUGCCUCCAAA [A12C C50U U54G]
2. AUAAAAGCGCCAGAACUACAGAAAUGUAGUUGACGACGAGGAGGUUUAUUGAAUUUUCGGCGGAUUCCUCCAAA [G37C C50U G66U]
3. AUAAAAGCGCCAGAACUACAGAAAUGUAGUUGAAGAGGAGGAGGGUUAUCGAAUUUUCGGCGGAUGCCUCCAAA [C34A U45G]
4. AUAAAAGCGCCAGAGCUACAGAAAUGUAGUUGACGACGAGGAGGUUUAUCGAAUUUUUGGCGGAUGCCUCCAAA [A15G G37C C58U]
5. AUAAAAGCGCCAGAACUACAGAAAUGUAGUUGACGAGGAGGAGGUUUAUGGAAUUUUCGGUGGGUGCCUCCAAA [C50G C61U A64G]
6. AUAAAAGCGCCAGAACUACAGAAAUGUAGUUGACGAGGAGGAGGUUGAUCGAAUUGUCGGCGUAUGCCUCCAAA [U47G U56G G63U]
7. AUAAAUGCGCCAGAACUACAGAAAUGUAGAUGACGAGGAGGAGGUUUAUCGAAUUUUCGGCGGAUGCCUCCAAA [A6U U30A]

-- reply
< 1e-05 s⁻¹
< 1e-05 s⁻¹
< 1e-05 s⁻¹
< 1e-05 s⁻¹
0.000244 s⁻¹
< 1e-05 s⁻¹
< 1e-05 s⁻¹

Return reported self-cleavage kobs at 40 uM GlcN6P values for all items listed beneath this line.
1. AUAAAAGCGCCAGAACUACAGAAAUGUAGUUGACGAGGAGGAGGUUUAUCGGAUUUUCGGCGGAUGCCUUCAAA [A52G C70U]
2. AUAAAAGGGCCAGAACUACAGAAAUGUAGUUGACGAGGAGGAGGUUUAUCGAAUUUUCGGCGGACGCCUCCAAA [C8G U65C]
3. AUAAAACCGCUAGAACUACAGAAAUGUAGUUGACGAGGAGGAGGUUUAUCGAAUUUUCGGAGGAUGCCUGCAAA [G7C C11U C61A C70G]
4. AUAAAAGCGUCAGAACUACAGAAAUGUAGUUGACGAGGAGGAGGUUUAUCGAAAUUUCGGCGGAUGCCUACAAA [C10U U54A C70A]

-- reply
1. 2.96e-05 s⁻¹
2. < 1e-05 s⁻¹
3. < 1e-05 s⁻¹
4. < 1e-05 s⁻¹

Return reported self-cleavage kobs at 40 uM GlcN6P values for all items listed beneath this line.
1. AUAAAAGCGCCAGAAAUACAGAAAUGUAGUUGACUAGGAGGACGUUUAUCGAAUUUUCGGCGGAUGCUUCCAAA [C16A G35U G43C C68U]
2. AUAAAAGCGCCAGGACUACAGAAAUGUAGUUGACGAGGAGGAGGUUUAUCGAAUUUUCGGCGGAUGCGUCCAAA [A14G C68G]
3. AUAAAAGCACCAGAACUACAGAAAUGUAGUUGCCGAGGAGGAGGUUUAUCGAAUUUUCGGCGGAUGCCUCCAAA [G9A A33C]

-- reply
1. < 1e-05 s⁻¹
2. 3.33e-05 s⁻¹
3. < 1e-05 s⁻¹

Measured self-cleavage kobs at 40 uM GlcN6P, AUAAAAGCGCCAGAACUACAGAAAUGUAGAUGACGAGGAGGAGGUUUAUCGAAUUUUCGGCGGAUGUCUCCAAA [U30A C67U] : 5.62e-05 s⁻¹
